target: human 5-HT2A receptor (Homo sapiens (Human))
Sequence (P28223 whole entry): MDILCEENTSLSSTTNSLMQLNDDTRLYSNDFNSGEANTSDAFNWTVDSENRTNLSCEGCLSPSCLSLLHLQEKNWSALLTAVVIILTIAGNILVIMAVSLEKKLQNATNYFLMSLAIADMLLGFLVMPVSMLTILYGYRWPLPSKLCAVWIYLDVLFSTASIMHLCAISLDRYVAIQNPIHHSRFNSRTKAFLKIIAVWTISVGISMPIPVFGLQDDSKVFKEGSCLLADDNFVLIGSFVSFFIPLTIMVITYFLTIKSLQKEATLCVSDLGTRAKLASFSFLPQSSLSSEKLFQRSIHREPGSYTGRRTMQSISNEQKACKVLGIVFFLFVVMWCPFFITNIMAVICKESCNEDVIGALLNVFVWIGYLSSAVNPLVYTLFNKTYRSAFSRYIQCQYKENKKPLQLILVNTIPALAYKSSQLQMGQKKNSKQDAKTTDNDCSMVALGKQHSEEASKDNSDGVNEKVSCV
pKi: −log10 of the molar value.
measured.metric: pKi

>>> df
                               smiles_entry                          target_or_system  measured_metric  recorded_measurement
0  Cc1ccc2c(C3CCN(CCn4ccc5cccnc5c4=O)CC3)noc2c1  human 5-HT2A receptor (Homo sapiens (Human))              pKi                  8.00
1  O=C1c2cnccc2CCN1CCN1CCC(c2noc3ccccc23)CC1  human 5-HT2A receptor (Homo sapiens (Human))              pKi                  8.08
2  COc1ncc2c(n1)CCN(CCN1CCN(c3noc4ccccc34)CC1)C2=O  human 5-HT2A receptor (Homo sapiens (Human))              pKi                  7.64
3  COc1ccc2c(n1)C(=O)N(CCN1CCC(c3noc4ccccc34)CC1)CC2  human 5-HT2A receptor (Homo sapiens (Human))              pKi                  7.84

----------
target: hERG channel (Homo sapiens (Human), UniProt Q12809); assay: Test 6-1: inhibitory activity for hERG channel (auto patch clamp, Qpatch); assay type: cell-based; conditions: hERG-CHO cells, whole cell patch clamp, Qpatch; read-out: hERG inhibition IC50
Sequence (Q12809 whole entry): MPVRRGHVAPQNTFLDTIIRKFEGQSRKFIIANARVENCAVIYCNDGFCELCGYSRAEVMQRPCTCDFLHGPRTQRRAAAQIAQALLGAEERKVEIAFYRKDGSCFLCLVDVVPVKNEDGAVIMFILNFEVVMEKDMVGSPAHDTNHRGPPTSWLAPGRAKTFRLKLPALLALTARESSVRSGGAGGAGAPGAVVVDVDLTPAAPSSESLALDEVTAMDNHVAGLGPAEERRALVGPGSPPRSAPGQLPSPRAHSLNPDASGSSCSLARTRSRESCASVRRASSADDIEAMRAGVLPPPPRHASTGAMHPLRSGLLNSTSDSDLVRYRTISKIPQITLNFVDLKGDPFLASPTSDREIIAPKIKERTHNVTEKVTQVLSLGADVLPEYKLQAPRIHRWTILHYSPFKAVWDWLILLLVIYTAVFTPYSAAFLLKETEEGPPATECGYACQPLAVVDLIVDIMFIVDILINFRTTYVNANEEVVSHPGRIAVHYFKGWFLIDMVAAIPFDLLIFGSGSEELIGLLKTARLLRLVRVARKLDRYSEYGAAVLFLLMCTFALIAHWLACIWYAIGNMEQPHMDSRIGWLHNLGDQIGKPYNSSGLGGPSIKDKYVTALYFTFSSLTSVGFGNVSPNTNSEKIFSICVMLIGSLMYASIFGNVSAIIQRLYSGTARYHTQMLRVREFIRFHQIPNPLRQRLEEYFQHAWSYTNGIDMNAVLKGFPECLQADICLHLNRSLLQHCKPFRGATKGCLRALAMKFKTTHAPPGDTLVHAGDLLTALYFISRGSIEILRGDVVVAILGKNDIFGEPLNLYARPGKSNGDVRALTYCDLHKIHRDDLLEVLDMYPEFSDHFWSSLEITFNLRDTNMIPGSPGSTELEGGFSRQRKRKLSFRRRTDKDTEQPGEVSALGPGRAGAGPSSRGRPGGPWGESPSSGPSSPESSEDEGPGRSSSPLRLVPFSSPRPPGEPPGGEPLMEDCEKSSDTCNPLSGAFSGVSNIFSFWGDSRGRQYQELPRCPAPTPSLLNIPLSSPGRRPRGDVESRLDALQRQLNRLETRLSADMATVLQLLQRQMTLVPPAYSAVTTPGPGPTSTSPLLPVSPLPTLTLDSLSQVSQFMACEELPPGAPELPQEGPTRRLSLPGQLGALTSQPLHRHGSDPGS
pIC50: −log10 of the molar value.
measured.metric: pIC50

>>> df
                               smiles_entry  measured_metric  censoring_operator  recorded_measurement
0  COc1ccc2c(n1)C(=O)N(CCN1CCN(c3noc4ccccc34)CC1)CC2            pIC50                   =                  5.70
1  COc1ncc2c(n1)CCN(CCN1CCN(c3noc4ccccc34)CC1)C2=O            pIC50                   <                  5.00

----------
Catalogue of Metabolic stability in human hepatic microsome values
assay: Test 4: metabolic stability test in human hepatic microsome; format: in vitro ADME; conditions: 0.1 mg/mL microsome, 0.1 μmol/L compound, NADPH, 37° C., 30 minutes
measured.metric: Metabolic stability in human hepatic microsome

                                    compound     recorded_measurement
 0  O=C1c2cnn(C3CC3)c2CCN1CCN1CCN(c2nsc3ccccc23)CC1   0.13 mL/min/mg protein
 1  Cn1cc2c(n1)C(=O)N(CCN1CCN(c3nsc4ccccc34)CC1)CCC2  0.063 mL/min/mg protein
 2  COc1cc2c(cn1)C(=O)N(CCN1CCN(c3nsc4ccccc34)CC1)CC2   0.22 mL/min/mg protein
 3  O=C1c2cncnc2CCN1CCN1CCC(c2noc3ccccc23)CC1  0.013 mL/min/mg protein
 4  Cc1nn(C)c2c1C(=O)N(CCN1CCC(c3noc4ccccc34)CC1)CCC2  <0.05 mL/min/mg protein
 5  Cn1ncc2c1CCN(CCN1CCN(c3nsc4ccccc34)CC1)C2=O  <0.01 mL/min/mg protein
 6  Cc1noc2c1C(=O)N(CCN1CCC(c3noc4ccccc34)CC1)CC2  0.074 mL/min/mg protein
 7  O=C1c2ncccc2CCN1CCN1CCC(c2noc3ccccc23)CC1  0.039 mL/min/mg protein
 8  CC(C)n1ncc2c1CCN(CCN1CCC(c3noc4ccccc34)CC1)C2=O  <0.05 mL/min/mg protein
 9  CCn1ncc2c1CCN(CCN1CCN(c3nsc4ccccc34)CC1)C2=O  0.064 mL/min/mg protein
10  O=C1c2cnn(C3CC3)c2CCN1CCN1CCC(c2noc3ccccc23)CC1  <0.05 mL/min/mg protein
11  O=C1c2ncccc2CCC1CCN1CCC(c2noc3ccccc23)CC1 (stereo not drawn)  0.018 mL/min/mg protein
12  O=C1c2cccnc2CCN1CCN1CCC(c2noc3cc(F)ccc23)CC1  <0.05 mL/min/mg protein
13  O=C1c2cn[nH]c2CCCN1CCN1CCC(c2noc3ccccc23)CC1  <0.01 mL/min/mg protein
14  O=c1c2cccnc2ccn1CCN1CCN(c2noc3ccccc23)CC1  <0.05 mL/min/mg protein
15  Cc1nn(C)c2c1C(=O)N(CCN1CCN(c3noc4ccccc34)CC1)CCC2  0.065 mL/min/mg protein
16  O=C1c2c(Br)n[nH]c2CCN1CCN1CCC(c2noc3ccccc23)CC1  <0.05 mL/min/mg protein
17  Cn1ncc2c1CCN(CCN1CCN(c3noc4ccccc34)CC1)C2=O  <0.05 mL/min/mg protein
